- Test system: UO-31 renal
- experiment notes: NCI tumour cell line growth inhibition, 48 h
reported property: TGI

These recorded examples may help you get a feel for the data.
compound	result
O=c1[nH]nc(Cc2c[nH]c3ccccc23)o1	> 100 µM
O=c1[nH]nc(-c2ccccc2)n1/N=C/c1cccs1	> 100 µM
S=C1CCSc2c(ccc3ccccc23)N1	> 100 µM
C#CCSc1cc(Cl)c(C)cc1S(=O)(=O)Nc1nc2ccccc2o1	52.8 µM
N#CC(=N)c1ncn(-c2ccc(N)cc2)c1N	> 100 µM

Okay, next one:
TGI measured on NC(Cc1ccc(N(CCCl)CCCl)cc1)C(=O)NC(CCC(=O)O)C(=O)O (stereo unspecified) = > 100 µM

----------
- Test system: MDA-MB-231 breast
- experiment notes: NCI tumour cell line growth inhibition, 48 h
Below, each entry is listed with its recorded log10 TGI.
Reminder: these figures are log10 of reported TGI, in µM before transformation.

molecule	system tested	log10 TGI
COc1cc(NCCCN=C(N)NC(N)=NC(C)C)c2ncccc2c1	MDA-MB-231 breast	1.16
CCCCCCCCCCCCCCCCCCNC(=S)/N=C\C1=C(O)c2ccccc2C1=O	MDA-MB-231 breast	1.39

// CCC(=C/[C@H](C)C/C=C/C(C)=C/[C@@H](C)C(=O)[C@@H](C)[C@H](O)[C@@H](C)CC)/C=C/[C@@H]1OC(=O)C=C[C@H]1C : log10 TGI value = 0.25

The recorded log10 TGI for O=C(Nc1ccc(Cl)c(Cl)c1)Nc1c(Oc2ccc(Cl)c(Cl)c2)ccc(Cl)c1S(=O)(=O)O is 1.82

----------
- Tested on: M14 melanoma
- experiment notes: NCI tumour cell line growth inhibition, 48 h
Recorded measurements of TGI, one per entry

// worked examples, TGI included
compound	TGI
COC(=O)C(C(=O)OC)C1CCCC(=O)C1 (stereo not drawn)	> 100 µM
[N-]=[N+]=NC(c1cn(C2CC(O)C(CO)O2)c(=O)[nH]c1=O)C(Cl)I (stereo not drawn)	> 100 µM
Cc1cc(N2CCOCC2)nc(N[C@@H]2CCC[C@H](Nc3ccnc4cc(Cl)ccc34)C2)n1	3.7 µM
CN(C)CCNC(=O)c1cccc(N(C)C(=O)c2ccccc2)c1[N+](=O)[O-]	> 100 µM
CCC(=O)Nc1ccc(NC(C#N)c2cccc(Oc3ccccc3)c2)cc1 (stereo not drawn)	> 100 µM

The compound listed as c1ccc(CN2COc3c(ccc4c3OCN(Cc3ccccc3)C4)C2)cc1 shows TGI equal to > 100 µM

TGI reported for this compound CCN(CC)c1ccc(C(O)C2=CC(=O)c3ccccc3C2=O)cc1 (stereo not drawn) : 4.57 µM

Note to self: TGI recorded for CC(=O)OC(C)(C)/C(C)=C/C(=O)O[C@H]1C(=O)O[C@@H]2C[C@H]3[C@H](C)C(=O)C(O[C@@H]4O[C@H](CO)[C@@H](O)[C@H](O)[C@H]4O)=C[C@]3(C)[C@H]3[C@@H](O)[C@H](O)[C@@]4(C(=O)O)OC[C@]32[C@@H]14 was > 100 µM

Lab note: measured TGI of COc1ccc(N2C(=O)C3c4[nH]c5ccc(Br)cc5c4C4CCC(C(C)(C)C)CC4C3C2=O)cc1 (stereo not drawn) was > 100 µM

Lab note: measured TGI of CCCCCCCCCCCCCCCCCCNC(=S)/N=C\C1=C(O)c2ccccc2C1=O was 22 µM

----------
- System: NCI-H460 lung
- experiment notes: NCI tumour cell line growth inhibition, 48 h
We begin with a simple list: items and their reported TGI.
Hi! Could you send only the number? It should be in µM, unit omitted.

compound	units symbol	TGI
CC1(C)Cc2nc3c(cc2C(=O)C1C=N/C(C#N)=C(\N)C#N)C(=O)C(C=N/C(C#N)=C(\N)C#N)C(C)(C)C3 (centres undefined)	µM	8.21
O=C(Cc1ccc(F)c(F)c1)Nc1cc(C2(C(F)(F)F)CC2)nn1Cc1ccccc1	µM	7.58

Data point: CCN(CC)CC(O)CNc1c2ccc([N+](=O)[O-])cc2nc2cc(OC)c(OC)cc12 (centres undefined) ; TGI = 0.669

Noted for O=C(COc1cc(O)c2c(=O)cc(-c3ccccc3)oc2c1)Nc1ccccc1C(F)(F)F : its TGI reads 6.68

----------
- System: SN12C renal
- experiment notes: NCI tumour cell line growth inhibition, 48 h
Listed below: TGI values for each entry.

Recorded TGI, per entry:
compound	TGI
O=C(O)CCC(N=Cc1nc(-c2ccccc2)oc1O)C(=O)O (stereo not given)	> 100 µM
O=C(Nc1ccc(-n2ccc3c(NC(=O)c4ccccc4)ncnc32)cc1)Nc1ccc(Cl)c(Cl)c1	12.3 µM

TGI of COc1cc(-c2cc(=O)c3c(O)c(CC=C(C)C)c(O)cc3o2)ccc1O , assay on SN12C renal, is > 50 µM

// TGI (SN12C renal) for O=C(COc1cc(O)c2c(=O)cc(-c3ccccc3)oc2c1)Nc1ccccc1C(F)(F)F = > 100 µM

CC[C@@]1(C)CCC2c3ccc(O)cc3CC[C@H]2C1C (stereo not given in full) tested on SN12C renal gave TGI: 34.3 µM

----------
- Test system: NCI-H226 lung
- experiment notes: NCI tumour cell line growth inhibition, 48 h
reported property: TGI (µM)
Write it as a number; the unit µM goes unstated.

compound	units symbol	TGI
CCOC(=O)c1cc2/c(=C\c3ccc(N(C)C)cc3)c3ccccc3n2[n+]1C	µM	24.6

// compound COc1cc(NCCC2CCCCN2)c2ncccc2c1 (stereo not given) , assay NCI-H226 lung, TGI value: 97.9

NCI-H226 lung assay, compound NCCOCCOCCNc1nc(-c2ccccc2)nc(N2CCN(c3ccccn3)CC2)n1 , recorded TGI = 32.3

Reported TGI (NCI-H226 lung) for entry CC(C)([NH-])CO.CC(C)([NH-])CO.[Cl][Cd][Cl] is 20.9

Reported NCI-H226 lung TGI for item O=Nc1ccc(NO)c2ccccc12 was 38.4

# lookup: O=C1C=CC(=Nc2cc(Br)c(O)c(Br)c2)C=C1 on NCI-H226 lung, TGI = 59.6

The observed TGI for CCC(=O)Nc1ccc(NC(C#N)c2cccc(Oc3ccccc3)c2)cc1 (stereo not given) when tested with NCI-H226 lung stands at 89.3

Observed TGI, NCI-H226 lung, CC(C)=CC(Cc1ccccc1)S(=O)(=O)c1nc2ccccc2s1 (stereo not given) : 29.6

Given the compound Cc1cccc(C(C)(C)C)c1NC(=O)CC1C(=O)Nc2ccccc2S1(=O)=O (stereo not given) and test system NCI-H226 lung, the measured TGI is 32.8

The value of TGI recorded for O=C(c1ccccc1)C1OC1c1ccc([N+](=O)[O-])cc1 (stereo not given) when tested on NCI-H226 lung reads 60.1

----------
In this section, each of the compounds is paired with its reported TGI.
- Tested on: MDA-MB-231 breast
- experiment notes: NCI tumour cell line growth inhibition, 48 h

compound	reported property	result
CCN(CC)CC(O)CNc1c2ccc([N+](=O)[O-])cc2nc2cc(OC)c(OC)cc12 (stereo unspecified)	TGI	0.883 µM
C[n+]1c2cc(N)ccc2cc2ccc(N)cc21	TGI	9.68 µM [middle of 4 runs]
Cn1cnc([N+](=O)[O-])c1Sc1nc(N)nc2c1ncn2C1CC(O)C(CO)O1 (stereo unspecified)	TGI	> 100 µM
NC(=O)Cc1nc2c(N)ncnc2n1C1OC(CO)C(O)C1O (stereo unspecified)	TGI	> 100 µM
COc1cc(N(C)C)c(OC)cc1/C=C\c1ccnc2ccccc12	TGI	> 10 µM
COCc1cc(C(=O)Nc2cc([C@H]3CC[C@@H](OC(=O)NC(C)C)C3)[nH]n2)n(C)n1	TGI	91.1 µM
O=C(Nc1ccc(-n2ccc3c(NC(=O)c4ccccc4)ncnc32)cc1)Nc1ccc(Cl)c(Cl)c1	TGI	11 µM
O=c1cc(-c2cccc3c2Sc2ccccc2S3)oc(N2CCOCC2)c1	TGI	29.5 µM
COc1ccccc1C1ON=C(c2ccc([N+](=O)[O-])cc2)N1C12CC3CC(CC(C3)C1)C2 (stereo unspecified)	TGI	> 100 µM
O=C(COc1cc(O)c2c(=O)cc(-c3ccccc3)oc2c1)Nc1ccccc1C(F)(F)F	TGI	5.26 µM

Kindly review the next compound as well.
Entry O=c1ccn(COC(COCc2ccccc2)COCc2ccccc2)c(=O)[nH]1 , TGI reported as > 100 µM

----------
- Test system: SF-268 CNS
- experiment notes: NCI tumour cell line growth inhibition, 48 h
reported property: TGI (µM)
The response must be a number in µM with no trailing unit.

The cases that follow already have their TGI on record.
molecule	system tested	units symbol	TGI
COCc1cc(C(=O)Nc2cc([C@H]3CC[C@@H](OC(=O)NC(C)C)C3)[nH]n2)n(C)n1	SF-268 CNS	µM	50.5
Cn1cnc([N+](=O)[O-])c1Sc1nccn1-c1cccc2ccccc12	SF-268 CNS	µM	84.2
C/C1=C/C(=O)O[C@@H]2C[C@@H](CC[C@H](C)/C=C\C=C\CC1)O[C@@](O)([C@@H]1CSC(=O)N1)C2	SF-268 CNS	µM	1.38

Moving on to another molecule below.
Fill in: SF-268 CNS TGI for C[C@]12CC/C(=N\O)C=C1CC[C@@H]1C2CC[C@@]2(C)C1CC[C@@H]2OC1CCCCO1 (some centres undefined) = 55.2
